All figures here come from ChEMBL document CHEMBL4431385.

Kindly state EC90 for each of the entries shown.
Molecular target: Nonstructural protein 5A (Hepatitis C virus)
Sequence (whole entry): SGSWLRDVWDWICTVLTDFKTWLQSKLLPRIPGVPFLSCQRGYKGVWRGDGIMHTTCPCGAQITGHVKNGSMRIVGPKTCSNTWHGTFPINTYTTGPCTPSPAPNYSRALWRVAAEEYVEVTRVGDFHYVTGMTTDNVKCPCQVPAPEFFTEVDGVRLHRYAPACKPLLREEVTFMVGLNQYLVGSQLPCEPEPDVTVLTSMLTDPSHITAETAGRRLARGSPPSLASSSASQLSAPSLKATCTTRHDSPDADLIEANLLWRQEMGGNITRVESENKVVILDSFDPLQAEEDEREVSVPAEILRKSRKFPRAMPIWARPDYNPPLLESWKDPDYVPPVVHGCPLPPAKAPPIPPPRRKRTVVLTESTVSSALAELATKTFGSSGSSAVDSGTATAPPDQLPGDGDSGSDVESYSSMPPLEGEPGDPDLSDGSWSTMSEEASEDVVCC
Assay: Inhibition of HCV GT2b NS5A assessed as suppression of replicon RNA level by real-time PCR analysis
Conditions: Hepatitis C virus subtype 2b
Your answer should be a plain number; it is taken to be in nM.

Find the recorded EC90 belonging to COC(=O)N[C@H](C(=O)N1CCC[C@H]1c1ncc(-c2ccc3c(c2)cc2n3C(c3cccc(OC)c3)Oc3cc(-c4cnc([C@@H]5C[C@@H](F)CN5C(=O)[C@@H](NC(=O)OC)C(C)C)[nH]4)cc(F)c3-2)[nH]1)C(C)C (some centres undefined) and report it.
19

Find the recorded EC90 belonging to CCOc1cccc(C2Oc3cc(-c4cnc([C@@H]5CCCN5C(=O)[C@@H](NC(=O)OC)C(C)C)[nH]4)cc(F)c3-c3cc4cc(-c5cnc([C@@H]6CCCN6C(=O)[C@@H](NC(=O)OC)C(C)C)[nH]5)ccc4n32)c1 (some centres undefined) and report it.
8

Find the recorded EC90 belonging to COC(=O)N[C@H](C(=O)N1C[C@H](F)C[C@H]1c1ncc(-c2cc(F)c3c(c2)OC(c2cccc(OC(F)(F)F)c2)n2c-3cc3cc(-c4cnc([C@@H]5C[C@@H](F)CN5C(=O)[C@@H](NC(=O)OC)C(C)C)[nH]4)ccc32)[nH]1)C(C)C (some centres undefined) and report it.
52
